Molecular target: T1, Bre1-LR K352E (budding yeast, UniProt Q07457 227-700, K352E)
T1 construct: source: E. coli BL21 Rosetta (DE3), purified (Ni-NTA, heparin, gel filtration)
T1 sequence (looked up): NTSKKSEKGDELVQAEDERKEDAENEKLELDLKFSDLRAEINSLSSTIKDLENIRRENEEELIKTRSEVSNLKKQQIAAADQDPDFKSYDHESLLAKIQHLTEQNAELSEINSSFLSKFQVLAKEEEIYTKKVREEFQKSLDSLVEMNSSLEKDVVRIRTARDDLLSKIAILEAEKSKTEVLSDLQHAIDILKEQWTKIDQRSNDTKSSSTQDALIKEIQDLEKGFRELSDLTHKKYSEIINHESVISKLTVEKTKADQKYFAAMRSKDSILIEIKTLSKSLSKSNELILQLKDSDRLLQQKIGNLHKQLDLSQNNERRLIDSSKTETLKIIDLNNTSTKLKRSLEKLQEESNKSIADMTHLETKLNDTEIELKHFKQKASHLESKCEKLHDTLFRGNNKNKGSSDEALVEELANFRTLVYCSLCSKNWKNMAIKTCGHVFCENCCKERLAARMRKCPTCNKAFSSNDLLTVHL
Assay: SPR; Lge1-CT immobilised on a CM5 chip, Bre1-LR flown over; Biacore 8K, 25°C, 20 mM HEPES (pH 7.5), 200 mM sodium chloride, 0.02% Tween 20
Conditions: both partners purified

Binder | Kd, nM
Lge1-CT (Lge1 residues 261–332), intein-chitin binding domain (CBD) tag construct (domain or fragment, budding yeast, UniProt Q02796 261-332, looked up, Lge1, budding yeast, residues 261-332; residues 268–331 resolved in the electron density; the intein-CBD tag is named on the protein in the pull-down; also called intein-CBD-fused Lge1-CT; intein-CBD-tagged Lge1-CT; source: E. coli BL21 Rosetta (DE3): cleared cell extract on chitin resin (pull-down); purified (chitin, heparin, gel filtration) for ITC and SPR; co-purified with Bre1-LR for the …) KNVKKTNNTESECEKAREVFKESDSIDSALEELNLKINSNELELRLLNNQCDKHALNIQLTQEKLDSLLLMQ | 76.6
